Tgt: hERG channels (Homo sapiens (Human), UniProt Q12809)
Sequence (Q12809 whole entry): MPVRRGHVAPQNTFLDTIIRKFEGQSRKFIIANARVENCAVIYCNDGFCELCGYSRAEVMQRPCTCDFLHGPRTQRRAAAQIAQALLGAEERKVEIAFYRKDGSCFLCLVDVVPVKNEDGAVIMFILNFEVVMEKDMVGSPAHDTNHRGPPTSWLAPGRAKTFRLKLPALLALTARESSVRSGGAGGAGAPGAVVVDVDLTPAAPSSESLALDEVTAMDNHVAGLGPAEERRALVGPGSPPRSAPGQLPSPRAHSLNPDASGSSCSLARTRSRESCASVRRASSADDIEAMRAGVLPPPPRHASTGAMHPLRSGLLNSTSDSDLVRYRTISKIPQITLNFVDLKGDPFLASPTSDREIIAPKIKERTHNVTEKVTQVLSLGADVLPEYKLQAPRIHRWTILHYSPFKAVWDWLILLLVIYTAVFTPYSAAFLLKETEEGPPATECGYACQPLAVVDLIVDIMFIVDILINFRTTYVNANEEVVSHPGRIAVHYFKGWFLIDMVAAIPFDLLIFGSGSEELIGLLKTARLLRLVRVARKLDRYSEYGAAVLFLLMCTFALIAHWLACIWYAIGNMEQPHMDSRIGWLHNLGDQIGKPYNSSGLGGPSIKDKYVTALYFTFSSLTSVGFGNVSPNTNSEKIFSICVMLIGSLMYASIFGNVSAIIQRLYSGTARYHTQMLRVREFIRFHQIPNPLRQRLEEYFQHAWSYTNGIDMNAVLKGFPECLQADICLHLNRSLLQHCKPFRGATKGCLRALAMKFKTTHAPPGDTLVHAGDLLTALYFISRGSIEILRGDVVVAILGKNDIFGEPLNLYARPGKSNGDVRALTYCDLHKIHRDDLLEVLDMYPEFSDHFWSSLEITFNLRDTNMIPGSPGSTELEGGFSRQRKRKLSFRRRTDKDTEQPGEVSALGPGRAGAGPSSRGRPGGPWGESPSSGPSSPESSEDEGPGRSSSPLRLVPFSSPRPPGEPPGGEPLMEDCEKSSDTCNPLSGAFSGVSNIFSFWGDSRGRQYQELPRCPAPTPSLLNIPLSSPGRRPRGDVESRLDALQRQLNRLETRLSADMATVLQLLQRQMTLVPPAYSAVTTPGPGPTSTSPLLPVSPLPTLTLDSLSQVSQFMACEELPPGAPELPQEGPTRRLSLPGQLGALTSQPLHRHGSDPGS
Test summary: hERG Manual Patch Clamp Assay (HEK 293 cells stably expressing hERG channels)
Format: cell-based
Assay setup: human, HEK 293 cells stably expressing hERG channels, pH 7.4
Rule: inhibition at 1 µM of 30% or more gives fulfilled; anything lower gives not fulfilled.

Has Cc1c([C@@H](O)CNCc2cnn(-c3cc(C4CC4)c(C#N)cn3)c2)ccc2c1COC2=O [Example 148] a recorded inhibition at 1 µM greater than or equal to 30%? fulfilled

Has COc1cc(-n2cnc(CNC[C@H](O)c3ccc4c(c3C)COC4=O)c2)ncc1C#N [Example 51] a recorded inhibition at 1 µM greater than or equal to 30%? not fulfilled

Has COc1cc(-c2ccc(CNC[C@H](O)c3ccc4c(c3C)COC4=O)cn2)ncc1C#N [Example 130] a recorded inhibition at 1 µM greater than or equal to 30%? fulfilled

Has COc1cc(-n2ncc3c(CNC[C@H](O)c4ccc5c(c4C)COC5=O)cccc32)ncc1C#N [Example 55] a recorded inhibition at 1 µM greater than or equal to 30%? fulfilled

Has Cc1cc(-c2ncc(CNC[C@H](O)c3ccc4c(c3C)COC4=O)s2)ncc1C#N [Example 128] a recorded inhibition at 1 µM greater than or equal to 30%? not fulfilled

* * *

Tgt: hROMK (human Kir1.1) (Homo sapiens (Human))
Sequence (P48048 whole entry): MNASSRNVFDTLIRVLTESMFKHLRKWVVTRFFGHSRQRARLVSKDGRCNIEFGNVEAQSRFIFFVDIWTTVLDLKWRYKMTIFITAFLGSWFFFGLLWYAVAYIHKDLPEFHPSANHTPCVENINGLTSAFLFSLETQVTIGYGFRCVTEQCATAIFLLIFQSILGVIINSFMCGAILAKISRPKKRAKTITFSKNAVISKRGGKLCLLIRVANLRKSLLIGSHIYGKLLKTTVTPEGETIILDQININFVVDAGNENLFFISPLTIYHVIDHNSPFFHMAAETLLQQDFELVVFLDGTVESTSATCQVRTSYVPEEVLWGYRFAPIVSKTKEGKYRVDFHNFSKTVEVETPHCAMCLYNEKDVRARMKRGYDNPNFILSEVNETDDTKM
Test summary: Thallium Flux Assay (FluxOR, CHO T-Rex hROMK stable cell line)
Assay setup: CHO T-Rex hROMK cells, 10-point concentration response curve; read-out: Human ROMK TH Flux IC50
pIC50: −log10 of the molar value.
Rule: pIC50 of 7 or more gives rule met; anything lower gives rule not met.

Has Cc1c(C(O)CN(C)Cc2ccc(-c3ccc(C#N)c(F)c3)cc2)ccc2c1COC2=O (single isomer, unassigned) [Example 27-II] a recorded pIC50 greater than or equal to 7? rule not met

Has Cc1cc(-n2cc(CNC[C@H](O)c3ccc4c(c3C)COC4=O)cn2)cnc1C#N a recorded pIC50 greater than or equal to 7? rule met

Has Cc1c([C@@H](O)CNCc2ccc(-c3cnn(C)c3)nc2)ccc2c1COC2=O a recorded pIC50 greater than or equal to 7? rule not met

Has Cc1c(C(O)CN(C)Cc2ccc(-c3ccc4oc(=O)n(C)c4c3)nc2)ccc2c1COC2=O (stereo not drawn) [Example 1-I] a recorded pIC50 greater than or equal to 7? rule not met

Has Cc1nn(-c2ncc(CNC[C@H](O)c3ccc4c(c3C)COC4=O)cn2)cc1C#N a recorded pIC50 greater than or equal to 7? rule met

Has Cc1cc(-c2ccc(CN(C)CC(O)c3ccc4c(c3C)COC4=O)cc2)ncc1C#N (single isomer, unassigned) [Example 31-I] a recorded pIC50 greater than or equal to 7? rule met

Has Cc1c([C@@H](O)CNCc2cn(-c3ccc4oc(=O)n(C)c4c3)nc2C(F)(F)F)ccc2c1COC2=O a recorded pIC50 greater than or equal to 7? rule met

Has Cc1cc(-n2cc(CNC[C@H](NS(C)(=O)=O)c3ccc4c(c3C)COC4=O)cn2)ncc1C#N a recorded pIC50 greater than or equal to 7? rule met

Has Cc1c(C(O)CN(C)Cc2ccc(-c3ccc4oc(=O)n(C)c4c3)nc2)ccc2c1COC2=O (single isomer, unassigned) [Example 1-II] a recorded pIC50 greater than or equal to 7? rule not met

Has Cc1cc(-n2cc(CNCC(O)c3ccc4c(c3C3CC3)COC4=O)cn2)ncc1C#N (single isomer, unassigned) a recorded pIC50 greater than or equal to 7? rule met

Has Cc1cn(-c2ncc(CNC[C@H](O)c3ccc4c(c3C)COC4=O)cn2)c(C2CC2)n1 a recorded pIC50 greater than or equal to 7? rule not met

Has Cc1cc(-c2nc(CNC[C@H](O)c3ccc4c(c3C)COC4=O)cn2C)ncc1C#N a recorded pIC50 greater than or equal to 7? rule not met

Has CCc1nn(-c2ncc(CNC[C@H](O)c3ccc4c(c3C)COC4=O)cn2)cc1C#N a recorded pIC50 greater than or equal to 7? rule met

Has Cc1c(C(O)CN(C)Cc2ccc(-c3ccc(C#N)c(F)c3)cc2)ccc2c1COC2=O (single isomer, unassigned) [Example 27-I] a recorded pIC50 greater than or equal to 7? rule met

Has Cc1ncc(-c2ccc(CNC[C@H](O)c3ccc4c(c3C)COC4=O)cn2)s1 a recorded pIC50 greater than or equal to 7? rule met

Has Cc1cc(-n2cc(CNC(C)C(O)c3ccc4c(c3C)COC4=O)cn2)ncc1C#N (single isomer, unassigned) a recorded pIC50 greater than or equal to 7? rule met

Has Cc1cc(-c2nc(CNC[C@H](O)c3ccc4c(c3C)COC4=O)n(C)n2)ncc1C#N a recorded pIC50 greater than or equal to 7? rule not met

Has CN[C@@H](CNCc1cnn(-c2cc(C)c(C#N)cn2)c1)c1ccc2c(c1C)COC2=O a recorded pIC50 greater than or equal to 7? rule not met

Has Cc1c([C@@H](O)CNCc2ccc(-n3cc(C#N)c(OC(F)F)n3)nc2)ccc2c1COC2=O a recorded pIC50 greater than or equal to 7? rule met

Has Cc1c([C@@H](O)CNCc2cnn(-c3ccnc4c3ccn4C)c2)ccc2c1COC2=O a recorded pIC50 greater than or equal to 7? rule not met

Has Cc1cc(-n2cc(CNC[C@@H](c3ccc4c(c3C)COC4=O)N(C)C)cn2)ncc1C#N a recorded pIC50 greater than or equal to 7? rule not met

Has Cc1nc(-n2cc(CNC[C@H](O)c3ccc4c(c3C)COC4=O)cn2)ncc1C#N (single isomer, unassigned) a recorded pIC50 greater than or equal to 7? rule met

Numbers sourced from patent US10723723B2.
